# experiment.description: MTS proliferation assay (72 h read-out)
# Assay type: cell-based
# condition.summary: MRC5 cells
# Experimental: B) MTS Proliferation Assay The assay is performed in 96 well tissue culture plates. The cells (range: 1.5*10^3-10^4) are seeded out in 80 μl complete medium 24 h prior to compound treatment. The test compounds are added in 20 μl complete medium containing max 5% DMSO. The final compound concentrations in the assays are in the range of 0.001 μM-10 μM. […] Subsequently, the plates are shortly shaked and absorption measured with a microplate-reader at 492 nm. […]
pIC50: −log10 of the molar value.
Provide the recorded pIC50 for the entries that follow.

[[record]]
smiles_text = "Nc1c(C(=O)c2cccnc2N2CCC(O)CC2)oc2ccc(Cl)cc12"
result = "< 6.00"

[[record]]
smiles_text = "CCN(C)c1ncccc1C(=O)c1oc2ccc(Cl)cc2c1N"
result = "6.00 to 7.00"

[[record]]
smiles_text = "CCOc1ccc2oc(C(=O)c3cc(F)ccc3OCC)cc2c1"
result = "> 8.00"

[[record]]
smiles_text = "Nc1c(C(=O)c2cccnc2N2CCCCC2)oc2ccc(Cl)cc12"
result = "> 8.00"


Below: the item to evaluate.
Data request: # pIC50 lookup, item "CCOc1ccc(F)cc1C(=O)c1cc2cc(COC)ccc2o1"
Data returned: 7.00 to 8.00
